- System Name: GSK3α (GST-full length GSK3α) (Homo sapiens (Human))
- Sequence (P49840 whole entry): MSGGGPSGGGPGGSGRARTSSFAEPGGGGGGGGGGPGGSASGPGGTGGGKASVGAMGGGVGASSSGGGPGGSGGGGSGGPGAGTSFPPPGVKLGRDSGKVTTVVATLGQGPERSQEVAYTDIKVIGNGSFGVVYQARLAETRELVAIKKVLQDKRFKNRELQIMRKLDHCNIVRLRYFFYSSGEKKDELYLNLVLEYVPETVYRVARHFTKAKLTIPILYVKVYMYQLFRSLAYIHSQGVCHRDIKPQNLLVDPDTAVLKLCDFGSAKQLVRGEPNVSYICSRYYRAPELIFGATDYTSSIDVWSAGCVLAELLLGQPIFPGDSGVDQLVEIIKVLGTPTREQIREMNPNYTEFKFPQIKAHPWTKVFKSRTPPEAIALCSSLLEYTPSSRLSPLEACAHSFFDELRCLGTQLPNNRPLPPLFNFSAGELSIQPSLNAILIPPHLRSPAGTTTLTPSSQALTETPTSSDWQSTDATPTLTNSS
- Method Notes: GSK3α TR-FRET kinase assay
- Format: biochemical
- Particulars: 1 nM GSK3α, 4 μM ATP, 30 minute preincubation, Table 16; read-out: GSK3-A TR-FRET BIOCHEMICAL (TR-FRET); IC50
pIC50: −log10 of the molar value.
Value Kind: pIC50

Molecule	Measured
CCC1(c2cccc(N(C)c3cccc(C(F)(F)F)n3)c2)C2=C(CC(C)(C)CC2=O)Nc2n[nH]cc21 (stereo not shown) [Compound 913122]	6.00 to 7.00
CCC1(c2cccc(C3CCCC3)c2)C2=C(CC(C)(C)CC2=O)Nc2n[nH]cc21 (stereo not shown) [Compound 949082]	≥ 7.00
CCC1(c2cc(N3CCOCC3)ccc2F)C2=C(CC(C)(C)CC2=O)Nc2n[nH]cc21 (stereo not shown) [Compound 909203]	6.00 to 7.00
CC[C@@]1(c2cccc(-c3c(C)nn(C)c3C)c2)C2=C(CC(C)(C)CC2=O)Nc2n[nH]cc21 [Compound 911990]	≥ 7.00

====

Measured IC50 values are reported for all entries that follow.
- System Name: GSK3b (GST-full length GSK3b) (Homo sapiens (Human))
- Sequence (P49841 whole entry): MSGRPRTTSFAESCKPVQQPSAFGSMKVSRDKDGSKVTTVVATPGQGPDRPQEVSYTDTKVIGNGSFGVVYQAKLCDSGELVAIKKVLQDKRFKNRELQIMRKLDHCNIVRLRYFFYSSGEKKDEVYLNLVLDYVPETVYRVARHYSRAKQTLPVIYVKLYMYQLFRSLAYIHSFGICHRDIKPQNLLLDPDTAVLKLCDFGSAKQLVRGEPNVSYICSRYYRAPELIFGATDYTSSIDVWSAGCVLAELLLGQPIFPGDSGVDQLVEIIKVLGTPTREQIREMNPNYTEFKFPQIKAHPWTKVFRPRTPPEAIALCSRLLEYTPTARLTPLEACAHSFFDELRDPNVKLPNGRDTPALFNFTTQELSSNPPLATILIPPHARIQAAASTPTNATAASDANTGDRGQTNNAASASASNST
- Method Notes: GSK3b TR-FRET kinase assay
- Assay type: biochemical
- Particulars: 1 nM GSK3b, 2 μM ATP, 30 minute preincubation, Table 16; read-out: GSK3-B TR-FRET BIOCHEMICAL (TR-FRET)

Compound	IC50
CNC(=O)C1CCC2(CC1)C1=C(CC(C)(C)CC1=O)Nc1n[nH]cc12 (stereo not drawn)	100 to 1000 nM
CC1(C)CC(=O)C2=C(Nc3n[nH]cc3C23CCN(S(=O)(=O)c2cccc(C(F)(F)F)c2)CC3)[C@@H]1F	≤ 100 nM
CCC1(c2cccc(-c3ccncc3)c2)C2=C(Nc3n[nH]cc31)C(F)C(C)(C)CC2=O (stereo not drawn) [Compound 959341]	100 to 1000 nM
CC1(C)CC(=O)C2=C(C1)Nc1n[nH]cc1C21CCN(S(=O)(=O)c2cccnc2)CC1	≤ 100 nM
CC1(C)CC(=O)C2=C(C1)Nc1n[nH]cc1C21CCN(S(=O)(=O)c2cccc3ncccc23)CC1	≤ 100 nM
Cc1cnn(C)c1S(=O)(=O)N1CCC2(CC1)C1=C(CC(C)(C)CC1=O)Nc1n[nH]cc12	1000 to 5000 nM
CC1(C)CC(=O)C2=C(C1)Nc1n[nH]cc1C21Cc2ccccc2C1	100 to 1000 nM
CCC1(c2cccc(-c3ccncc3C)c2)C2=C(CC(C)(C)CC2=O)Nc2n[nH]cc21 (stereo not drawn)	≤ 100 nM
COc1ccccc1S(=O)(=O)N1CC2(C1)C1=C(CC(C)(C)CC1=O)Nc1n[nH]cc12	≤ 100 nM
Cn1ccc(S(=O)(=O)N2CC3(C2)C2=C(CC(C)(C)CC2=O)Nc2n[nH]cc23)n1	≤ 100 nM
CC1(C)CC(=O)C2=C(C1)Nc1n[nH]cc1C21CCCN(CC(F)(F)F)CC1 (stereo not drawn)	100 to 1000 nM
CCC1(c2cccc(-c3ccnc(C)c3OC)c2)C2=C(CC(C)(C)CC2=O)Nc2n[nH]cc21 (stereo not drawn)	≤ 100 nM
COc1ccc(S(=O)(=O)N2CCC3(CC2)C2=C(CC(C)(C)CC2=O)Nc2n[nH]cc23)cc1	≤ 100 nM
CC1(C)CC(=O)C2=C(C1)Nc1n[nH]cc1C21CN(S(=O)(=O)c2ccc(F)cc2)C1	≤ 100 nM
CC[C@]1(c2cccc(-c3cnc(C)n3C)c2)C2=C(CC(C)(C)CC2=O)Nc2n[nH]cc21	> 5000 nM
CC[C@]1(c2cccc(Cc3ncccn3)c2)C2=C(CC(C)(C)CC2=O)Nc2n[nH]cc21	> 5000 nM
CCC1(c2cccc(-c3ncnn3C)c2)C2=C(CC(C)(C)CC2=O)Nc2n[nH]cc21 (stereo not drawn) [Compound 945472]	100 to 1000 nM
CC[C@]1(c2ccccc2)C2=C(C[C@@]3(CCN(C)C3=O)CC2=O)Nc2n[nH]cc21	> 5000 nM
COC[C@H]1C[C@]2(C1)C1=C(CC(C)(C)CC1=O)Nc1n[nH]cc12	100 to 1000 nM
CCC1(c2cccc(N(C)c3ccnnc3)c2)C2=C(CC(C)(C)CC2=O)Nc2n[nH]cc21 (stereo not drawn)	≤ 100 nM
CCC1(c2cccc(S(=O)(=O)C3COC3)c2)C2=C(CC(C)(C)CC2=O)Nc2n[nH]cc21 (stereo not drawn) [Compound 944017]	≤ 100 nM
CC1(C)CC(=O)C2=C(C1)Nc1n[nH]cc1C21CCN(S(=O)(=O)c2cnn(-c3ccccc3)c2)CC1	≤ 100 nM
CCCn1nccc1-c1cccc(C2(CC)C3=C(CC(C)(C)CC3=O)Nc3n[nH]cc32)c1 (stereo not drawn) [Compound 946094]	1000 to 5000 nM
CCC1(c2cccc(C(C)c3ncccn3)c2)C2=C(CC(C)(C)CC2=O)Nc2n[nH]cc21 (stereo not drawn) [Compound 948061]	1000 to 5000 nM
CC1(C)CC(=O)C2=C(C1)Nc1n[nH]cc1C21CCN(S(=O)(=O)c2cc(Cl)ccc2Cl)CC1	100 to 1000 nM
CC[C@]1(c2cccc(C(F)(F)F)c2)C2=C(C[C@@]3(CCN(C)C3=O)CC2=O)Nc2n[nH]cc21	> 5000 nM
C[C@@H]1C[C@]2(CCN1S(=O)(=O)c1ccn(C)n1)C1=C(CC(C)(C)CC1=O)Nc1n[nH]cc12	100 to 1000 nM
CC1(C)CC(=O)C2=C(C1)Nc1n[nH]cc1C21CCCCC1	≤ 100 nM
Cc1cc(S(=O)(=O)N2CCC3(CC2)C2=C(CC(C)(C)CC2=O)Nc2n[nH]cc23)ccc1Cl	≤ 100 nM
CC1(C)CC(=O)C2=C(C1)Nc1n[nH]cc1C21CN(CC(F)F)C1	100 to 1000 nM
